target: DDR1 (Homo sapiens); assay: Degradation of DDR1 in tumor cell MKN45 (Western blot); format: cell-based; design: The degradation activity of the compounds against DDR1 in the MKN45 cell line; endogenous in cells; host or cells: MKN45; settings: MKN-45, maximum degradation percentage, MKN45 cells, 24 hours
endpointName: Dmax

Below, each entry is followed by its recorded Dmax result.
COc1cc2c(Oc3ccc(NC(=O)C4(C(=O)Nc5ccc(F)cc5)CC4)cc3)ccnc2cc1N1CCC(N2CCN(C(=O)CCOCC(=O)N[C@H](C(=O)N3C[C@H](O)C[C@H]3C(=O)NCc3ccc(-c4scnc4C)cc3)C(C)(C)C)CC2)CC1
75 to 85%
COc1cc2c(Oc3ccc(NC(=O)C4(C(=O)Nc5ccc(F)cc5)CC4)cc3)ccnc2c(F)c1N1CCC(CN2C3CC2CN(CCC(=O)Nc2cc4c(cn2)C(=O)N(C2CCC(=O)NC2=O)C4)C3)CC1 (stereo not drawn)
75 to 85%

Value of Dmax reported for the compound COc1cc2c(Oc3ccc(NC(=O)C4(C(=O)Nc5ccc(F)cc5)CC4)cc3)ccnc2cc1N1CCC(CC(=O)N[C@H](C(=O)N2C[C@H](O)C[C@H]2C(=O)NCc2ccc(-c3scnc3C)cc2)C(C)(C)C)CC1 is 65 to 75%

Please fill in: Dmax reported for O=C1CCC(N2Cc3c(C#CCCN4CC5CC(C4)N5CC4CCN(c5cc6nccc(Oc7ccc(NC(=O)C8(C(=O)Nc9ccc(F)cc9)CC8)cc7)c6cc5F)CC4)cccc3C2=O)C(=O)N1 (stereo not drawn) = 65 to 75%

Dmax for O=C1CCC(N2Cc3cc(NC(=O)CCN4CC5CC(C4)N5CC4CCN(c5cc6nccc(Oc7ccc(NC(=O)C8(C(=O)Nc9ccc(F)cc9)CC8)cc7)c6cc5F)CC4)ccc3C2=O)C(=O)N1 (stereo not drawn) is 75 to 85%

GET /value?item= COc1cc2c(Oc3ccc(NC(=O)C4(C(=O)Nc5ccc(F)cc5)CC4)cc3)ccnc2cc1N1CCC(C(=O)NCC(=O)N[C@H](C(=O)N2C[C@H](O)C[C@H]2C(=O)NCc2ccc(-c3scnc3C)cc2)C(C)(C)C)CC1 &field=Dmax returns 65 to 75%

// sample COc1cc2c(Oc3ccc(NC(=O)C4(C(=O)Nc5ccc(F)cc5)CC4)cc3)ccnc2cc1N1CCC(N2CC(C(=O)N[C@H](C(=O)N3C[C@H](O)C[C@H]3C(=O)NCc3ccc(-c4scnc4C)cc3)C(C)(C)C)C2)CC1 , its Dmax was 75 to 85%

Reported Dmax for COc1cc2c(Oc3ccc(NC(=O)C4(C(=O)Nc5ccc(F)cc5)CC4)cc3)ccnc2cc1N1CCC(CN2CC(C(=O)N3C[C@H](O)C[C@H]3C(=O)NCc3ccc(-c4scnc4C)cc3)C2)CC1 was 65 to 75%

Dmax recorded for this compound, COc1cc2c(Oc3ccc(NC(=O)C4(C(=O)Nc5ccc(F)cc5)CC4)cc3)ccnc2cc1COCCN1CCC(OCCC(=O)N[C@H](C(=O)N2C[C@H](O)C[C@H]2C(=O)NCc2ccc(-c3scnc3C)cc2)C(C)(C)C)CC1 , is 65 to 75%

Short answer for Cc1nc(CCN2CCC(CN3CCN(c4ccc5c(c4)C(=O)N(C4CCC(=O)NC4=O)C5=O)CC3)CC2)cc(Nc2ncc(C(=O)Nc3c(C)cccc3Cl)s2)n1 (stereo not drawn) : Dmax was > 85%

For this compound ( COc1cc2c(Oc3ccc(NC(=O)C4(C(=O)Nc5ccc(F)cc5)CC4)cc3)ccnc2cc1N1CCC(NC(=O)C2(C(=O)N[C@H](C(=O)N3C[C@H](O)C[C@H]3C(=O)NCc3ccc(-c4scnc4C)cc3)C(C)(C)C)CC2)CC1 ), measured Dmax is 65 to 75%

Data point: COc1cc2c(Oc3ccc(NC(=O)C4(C(=O)Nc5ccc(F)cc5)CC4)cc3)ccnc2cc1NCC(=O)N[C@H](C(=O)N1C[C@H](O)C[C@H]1C(=O)NCc1ccc(-c2scnc2C)cc1)C(C)(C)C ; Dmax = 65 to 75%

---

molecular target: UniProt:Q08345; assay: Degradation of DDR1 in tumor cell MKN45 (Western blot); type: cell-based; set-up: The degradation activity of the compounds against DDR1 in the MKN45 cell line; endogenous in cells; host or cells: MKN45; settings: MKN-45, maximum degradation percentage, MKN45 cells, 24 hours
Here, each record is paired with measured Dmax data.

Answered examples (4):
COc1cc2c(Oc3ccc(NC(=O)C4(C(=O)Nc5ccc(F)cc5)CC4)cc3)ccnc2cc1N1CCC(CN2CCN(CCNc3nccc4c3CN(C3CCC(=O)NC3=O)C4=O)CC2)CC1 (stereo not shown)
65 to 75%
COc1cc2c(Oc3ccc(NC(=O)C4(C(=O)Nc5ccc(F)cc5)CC4)cc3)ccnc2cc1N1CCC(OCC(=O)N[C@H](C(=O)N2C[C@H](O)C[C@H]2C(=O)NCc2ccc(-c3scnc3C)cc2)C(C)(C)C)CC1
75 to 85%
COc1cc2c(Oc3ccc(NC(=O)C4(C(=O)Nc5ccc(F)cc5)CC4)cc3)ccnc2cc1N1CCC(C(=O)N2CCC(C(=O)N[C@H](C(=O)N3C[C@H](O)C[C@H]3C(=O)NCc3ccc(-c4scnc4C)cc3)C(C)(C)C)CC2)CC1
65 to 75%
COc1cc2c(Oc3ccc(NC(=O)C4(C(=O)Nc5ccc(F)cc5)CC4)cc3)ccnc2cc1N1CCC(N2CCC(C(=O)N[C@H](C(=O)N3C[C@H](O)C[C@H]3C(=O)NCc3ccc(-c4scnc4C)cc3)C(C)(C)C)CC2)CC1
65 to 75%

Moving on to another compound below.
Reported Dmax (UniProt:Q08345) for entry COc1cc2c(Oc3ccc(NC(=O)C4(C(=O)Nc5ccc(F)cc5)CC4)cc3)ccnc2cc1N1CCC(CN2CCN(CC(=O)Nc3cccc4c3CN(C3CCC(=O)NC3=O)C4=O)CC2)CC1 (stereo not shown) is > 85%

---

biological target: DDR1 (Homo sapiens); experiment: Degradation of DDR1 in tumor cell MKN45 (Western blot); assay type: cell-based; parameters: The degradation activity of the compounds against DDR1 in the MKN45 cell line; endogenous in cells; host or cells: MKN45; conditions: MKN-45, maximum degradation percentage, MKN45 cells, 24 hours
Dmax overview

# molecule COc1cc2c(Oc3ccc(NC(=O)C4(C(=O)Nc5ccc(F)cc5)CC4)cc3)ccnc2cc1NC(=O)CN1CCC(CN2CCN(c3ccc4c(c3)C(=O)N(C3CCC(=O)NC3=O)C4=O)CC2)CC1 (centres unmarked) ; its Dmax = 75 to 85%

Value of Dmax reported for the molecule O=C1CCC(N2C(=O)c3ccc(N4CCN(CCC5CCN(CCNC(=O)c6ccc(-c7cnc8ncc(Cc9ccc%10ncccc%10c9)n8n7)cc6F)CC5)CC4)cc3C2=O)C(=O)N1 (centres unmarked) is 65 to 75%

---

Consider the following compounds and their measured Dmax readings.
Biological target: DDR1 (Homo sapiens, UniProt Q08345)
Sequence (Q08345 19-913): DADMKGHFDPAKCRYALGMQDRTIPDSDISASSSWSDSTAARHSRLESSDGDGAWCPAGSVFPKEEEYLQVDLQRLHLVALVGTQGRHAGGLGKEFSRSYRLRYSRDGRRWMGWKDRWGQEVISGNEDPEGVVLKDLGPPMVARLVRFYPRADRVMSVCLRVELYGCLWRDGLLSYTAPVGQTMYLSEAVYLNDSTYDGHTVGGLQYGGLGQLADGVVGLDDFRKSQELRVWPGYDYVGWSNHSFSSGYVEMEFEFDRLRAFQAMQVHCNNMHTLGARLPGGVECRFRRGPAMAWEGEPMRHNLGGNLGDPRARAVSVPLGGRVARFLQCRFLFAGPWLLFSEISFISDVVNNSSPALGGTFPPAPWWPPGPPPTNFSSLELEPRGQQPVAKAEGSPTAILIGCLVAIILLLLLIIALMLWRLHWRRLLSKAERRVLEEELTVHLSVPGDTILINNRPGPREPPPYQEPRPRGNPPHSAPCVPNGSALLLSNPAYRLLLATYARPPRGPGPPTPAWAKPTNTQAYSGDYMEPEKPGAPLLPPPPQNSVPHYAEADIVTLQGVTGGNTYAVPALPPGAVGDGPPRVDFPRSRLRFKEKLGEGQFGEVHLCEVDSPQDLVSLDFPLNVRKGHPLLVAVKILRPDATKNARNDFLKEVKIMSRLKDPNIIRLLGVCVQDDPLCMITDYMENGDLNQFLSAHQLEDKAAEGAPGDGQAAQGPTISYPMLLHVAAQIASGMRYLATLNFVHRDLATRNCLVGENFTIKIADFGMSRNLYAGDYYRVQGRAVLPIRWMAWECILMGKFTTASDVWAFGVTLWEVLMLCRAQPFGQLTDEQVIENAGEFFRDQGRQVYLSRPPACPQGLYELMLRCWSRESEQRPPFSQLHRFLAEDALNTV
Experiment: Degradation of DDR1 in tumor cell MKN45 (Western blot)
Assay type: cell-based
Design: The degradation activity of the compounds against DDR1 in the MKN45 cell line; endogenous in cells; host or cells: MKN45
Details: MKN-45, maximum degradation percentage, MKN45 cells, 24 hours
Protocol: Western blot experiment: Take gastric cancer cells (MKN45) and inoculate them into a 6-well plate at a concentration of […], adding 2 ml to each well and incubating for 24 hours. The next day, observe the cells under a microscope to confirm their status. […] Centrifuge at 12000 rpm for 10 minutes, extract the supernatant, use the BCA protein quantification kit to determine and homogenize the sample loading. […]

Recorded Dmax (compound COc1cc2c(Oc3ccc(NC(=O)C4(C(=O)Nc5ccc(F)cc5)CC4)cc3)ccnc2cc1COCCN1CCC(CCNc2cccc3c2C(=O)N(C2CCC(=O)NC2=O)C3=O)CC1 (stereo not drawn) ): 65 to 75%

The reported Dmax of the compound O=C1CCC(N2Cc3cc(NC(=O)CN4C[C@@H]5C[C@H]4CN5CC4CCN(c5cc6nccc(Oc7ccc(NC(=O)C8(C(=O)Nc9ccc(F)cc9)CC8)cc7)c6cc5F)CC4)ccc3C2=O)C(=O)N1 (stereo partly drawn) was 65 to 75%

Lookup result for COc1cc2c(Oc3ccc(NC(=O)C4(C(=O)Nc5ccc(F)cc5)CC4)cc3)ccnc2cc1N1CCC(CN2C[C@H]3C[C@@H]2CN3CCC(=O)Nc2cc3c(cn2)C(=O)N(C2CCC(=O)NC2=O)C3)CC1 (stereo partly drawn) ; measured Dmax: 75 to 85%

---

Below, each entry is listed with its recorded Dmax.
biological target: DDR1 (Homo sapiens, UniProt Q08345); assay: Degradation of DDR1 in tumor cell MKN45 (Western blot); type: cell-based; set-up: The degradation activity of the compounds against DDR1 in the MKN45 cell line; endogenous in cells; host or cells: MKN45; conditions: MKN-45, maximum degradation percentage, MKN45 cells, 24 hours

COc1cc2c(Oc3ccc(NC(=O)C4(C(=O)Nc5ccc(F)cc5)CC4)cc3)ccnc2cc1N1CCC(CN2C[C@@H]3C[C@H]2CN3CCC(=O)Nc2ccc3c(c2)CN(C2CCC(=O)NC2=O)C3=O)CC1 (stereo partly drawn) [TPD12218]
65 to 75%
COc1cc2c(Oc3ccc(NC(=O)C4(C(=O)Nc5ccc(F)cc5)CC4)cc3)ccnc2cc1N1CCC(CN2CCN(CCNc3cc4c(cn3)CN(C3CCC(=O)NC3=O)C4=O)CC2)CC1 (stereo not drawn) [TPD12009]
65 to 75%

Attention now shifts to the item below.
For COc1cc2c(Oc3ccc(NC(=O)C4(C(=O)Nc5ccc(F)cc5)CC4)cc3)ccnc2c(F)c1N1CCC(CN2C3CC2CN(CCC(=O)Nc2cccc4c2CN(C2CCC(=O)NC2=O)C4=O)C3)CC1 (stereo not drawn) [TPD12140] the molecule record lists Dmax as 65 to 75%
